This collection of values is drawn from patent US20050090498A1.

- Test system: Human umbilical vein endothelial cells (HUVEC), VEGF-stimulated
- Assay Remarks: Test on the inhibition of VEGF-stimulated HUVEC growth ([3H]thymidine incorporation)
- Type: cell-based
- Protocol Conditions: human recombinant VEGF 10 ng/ml
Property Measured: IC50
Quick note: unit goes after the number.

Before answering, review these 4 worked examples.
Line Notation: O=C1Nc2ccc(F)cc2C1=C1C=Cc2cc(OCCN3CCOCC3)ccc2N1
IC50: 240 nM
//
Line Notation: O=Cc1ccc2c(c1)NC(=O)C2=C1C=Cc2ccccc2N1
IC50: 870 nM
//
Line Notation: CCOC(=O)CNC(=O)c1ccc2c(c1)C=CC(=C1C(=O)Nc3ccccc31)N2
IC50: 76 nM
//
Line Notation: O=C1Nc2cc(C(F)(F)F)ccc2C1=C1C=Cc2cc(OCCN3CCOCC3)ccc2N1
IC50: 47 nM

We now examine a further compound.
Note IC50 for the compound shown: "CCOC(=O)c1cc2c(cc1F)C(=C1C=Cc3cc(OCCN4CCOCC4)ccc3N1)C(=O)N2"
27 nM

---

- Tested on: Human umbilical vein endothelial cells (HUVEC), VEGF-stimulated
- Assay Remarks: Test on the inhibition of VEGF-stimulated HUVEC growth ([3H]thymidine incorporation)
- Type: cell-based
- Protocol Conditions: human recombinant VEGF 10 ng/ml
Property Measured: IC50 (nM)
Write it as a number; the unit nM goes unstated.

Before answering, review these 3 worked examples.
Compound: CN1CCC(N(C)CCOc2ccc3c(c2)C=CC(=C2C(=O)Nc4ccccc42)N3)CC1 [Example 87]
Quantitative Readout: 100
//
Compound: O=C1Nc2ccccc2C1=C1C=Cc2cc(OC(=O)c3ccccc3)ccc2N1 [Example 36]
Quantitative Readout: 160
//
Compound: O=C1Nc2ccc(Br)cc2C1=C1C=Cc2ccccc2N1 [Example 285]
Quantitative Readout: 70

Note IC50 for the compound shown: CCOC(=O)c1cc2c(cc1Cl)C(=C1C=Cc3cc(OCCN4CCOCC4)ccc3N1)C(=O)N2 [Example 298]
50

Note IC50 for the compound shown: CCOC(=O)c1cc2c(cc1C)C(=C1C=Cc3ccccc3N1)C(=O)N2 [Example 222]
6.8

---

This section presents compounds with their documented log10 of IC50 values.
- System: Human umbilical vein endothelial cells (HUVEC), VEGF-stimulated
- Assay Remarks: Test on the inhibition of VEGF-stimulated HUVEC growth ([3H]thymidine incorporation)
- Assay type: cell-based
- Protocol Conditions: human recombinant VEGF 10 ng/ml
All values: base-10 log of IC50 in nM.

Before answering, review these 5 worked examples.
Line Notation: CN1CCN(CCCc2ccc3c(c2)C=CC(=C2C(=O)Nc4ccccc42)N3)CC1
log10 of IC50: 2.18
//
Line Notation: O=C(NCCN1CCOCC1)C1=CC(=C2C(=O)Nc3ccccc32)Nc2ccccc21
log10 of IC50: 1.58
//
Line Notation: CCOC(=O)c1ccc2c(c1)NC(=O)C2=C1C=Cc2ccccc2N1
log10 of IC50: 1.08
//
Line Notation: O=C1Nc2ccccc2C1=C1C=Cc2cc(OCCN3CCS(=O)(=O)CC3)ccc2N1
log10 of IC50: 2.00
//
Line Notation: CN(C)CCN(C)CCOc1ccc2c(c1)C=CC(=C1C(=O)Nc3ccccc31)N2
log10 of IC50: 2.00

Note log10 of IC50 for the compound shown: "O=C1Nc2ccccc2C1=C1C=Cc2cc(Br)ccc2N1"
2.04

Note log10 of IC50 for the compound shown: "CCOC(=O)c1ccc2c(c1)C(=C1C=Cc3ccccc3N1)C(=O)N2"
2.49

Note log10 of IC50 for the compound shown: "O=C1Nc2ccccc2C1=C1C=Cc2cc(OCCN3CCCCC3=O)ccc2N1"
1.94

Note log10 of IC50 for the compound shown: "CCN(CC)CCNC(=O)C1=CC(=C2C(=O)Nc3ccccc32)Nc2ccccc21"
1.66
